Reference source for all entries: ChEMBL document CHEMBL1770134

Test system: Liver
Test: Metabolic stability in human liver microsomes assessed per gram of liver
Type: ADME, Microsome
Assay readout: Stability (mL/min/g)

Smiles representation	Measured result
CC(=S)NC[C@H]1CN(c2ccc(-c3nnc4ncccn34)cc2)C(=O)O1	0.3

----------
Test system: Staphylococcus aureus
Test: Antibacterial activity against Staphylococcus aureus ATCC 25923
Type: functional
Assay readout: MIC (µg/mL)

Smiles representation	Assay readout	Censoring sign	Measured result
CCC(=O)NC[C@H]1CN(c2ccc(-c3nnc4ncccn34)cc2)C(=O)O1	MIC	=	16
CC(C)CC(=O)NC[C@H]1CN(c2ccc(-c3nnc4ncccn34)cc2)C(=O)O1	MIC	>	16
CC(C)C(=O)NC[C@H]1CN(c2ccc(-c3nnc4ncccn34)cc2)C(=O)O1	MIC	>	16
CCCC(=O)NC[C@H]1CN(c2ccc(-c3nnc4ncccn34)cc2)C(=O)O1	MIC	>	16
CC(C)(C)NC(=O)NC[C@H]1CN(c2ccc(-c3nnc4ncccn34)cc2)C(=O)O1	MIC	>	16
CCOC(=O)NC[C@H]1CN(c2ccc(-c3nnc4ncccn34)cc2)C(=O)O1	MIC	=	16
COCCNC(=S)NC[C@H]1CN(c2ccc(-c3nnc4ncccn34)cc2)C(=O)O1	MIC	>	16
CCCCNC(=O)NC[C@H]1CN(c2ccc(-c3nnc4ncccn34)cc2)C(=O)O1	MIC	>	16
O=C(NC[C@H]1CN(c2ccc(-c3nnc4ncccn34)cc2)C(=O)O1)Oc1ccccc1	MIC	>	16
CC(C)NC(=O)NC[C@H]1CN(c2ccc(-c3nnc4ncccn34)cc2)C(=O)O1	MIC	>	16
CCCCC(=O)NC[C@H]1CN(c2ccc(-c3nnc4ncccn34)cc2)C(=O)O1	MIC	>	16
CCCCNC(=S)NC[C@H]1CN(c2ccc(-c3nnc4ncccn34)cc2)C(=O)O1	MIC	=	16
O=C(CCl)NC[C@H]1CN(c2ccc(-c3nnc4ncccn34)cc2)C(=O)O1	MIC	=	4
CC(C)NC(=S)NC[C@H]1CN(c2ccc(-c3nnc4ncccn34)cc2)C(=O)O1	MIC	=	16
O=C(NC[C@H]1CN(c2ccc(-c3nnc4ncccn34)cc2)C(=O)O1)C1CCC1	MIC	>	16
COC(=O)NC[C@H]1CN(c2ccc(-c3nnc4ncccn34)cc2)C(=O)O1	MIC	=	16
CC(=O)NC[C@H]1CN(c2ccc(-c3nnc4ncccn34)cc2)C(=O)O1	MIC	=	16
O=C(NC[C@H]1CN(c2ccc(-c3nnc4ncccn34)cc2)C(=O)O1)C(Cl)Cl	MIC	=	4
O=C(NC[C@H]1CN(c2ccc(-c3nnc4ncccn34)cc2)C(=O)O1)C1CC1	MIC	=	16
CCC(=S)NC[C@H]1CN(c2ccc(-c3nnc4ncccn34)cc2)C(=O)O1	MIC	=	4
CC(=S)NC[C@H]1CN(c2ccc(-c3nnc4ncccn34)cc2)C(=O)O1	MIC	=	1
O=C(NC[C@H]1CN(c2ccc(-c3nnc4ncccn34)cc2)C(=O)O1)c1ccccc1	MIC	>	16

----------
Target: CYP2C19 (Homo sapiens, UniProt P33261)
Sequence (P33261 whole entry): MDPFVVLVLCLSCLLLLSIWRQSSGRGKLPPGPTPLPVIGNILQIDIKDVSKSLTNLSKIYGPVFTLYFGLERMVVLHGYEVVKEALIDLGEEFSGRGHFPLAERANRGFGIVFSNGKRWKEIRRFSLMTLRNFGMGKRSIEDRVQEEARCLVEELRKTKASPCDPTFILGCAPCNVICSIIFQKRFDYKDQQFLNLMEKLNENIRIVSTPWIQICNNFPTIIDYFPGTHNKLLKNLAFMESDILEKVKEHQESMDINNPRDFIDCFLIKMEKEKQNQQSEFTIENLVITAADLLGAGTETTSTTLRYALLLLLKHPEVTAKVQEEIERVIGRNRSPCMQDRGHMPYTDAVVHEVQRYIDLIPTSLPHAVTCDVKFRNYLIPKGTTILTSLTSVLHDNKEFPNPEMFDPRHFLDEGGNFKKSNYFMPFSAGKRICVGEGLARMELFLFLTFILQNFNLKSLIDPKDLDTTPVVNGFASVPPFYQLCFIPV
Assay: Inhibition of CYP2C19 at 10 uM
Assay type: ADME

Smiles representation	Value units	inhibition at 10 µM
CC(=S)NC[C@H]1CN(c2ccc(-c3nnc4ncccn34)cc2)C(=O)O1	%	30

----------
Molecular target: CYP1A2 (Homo sapiens, UniProt P05177)
Sequence (P05177 whole entry): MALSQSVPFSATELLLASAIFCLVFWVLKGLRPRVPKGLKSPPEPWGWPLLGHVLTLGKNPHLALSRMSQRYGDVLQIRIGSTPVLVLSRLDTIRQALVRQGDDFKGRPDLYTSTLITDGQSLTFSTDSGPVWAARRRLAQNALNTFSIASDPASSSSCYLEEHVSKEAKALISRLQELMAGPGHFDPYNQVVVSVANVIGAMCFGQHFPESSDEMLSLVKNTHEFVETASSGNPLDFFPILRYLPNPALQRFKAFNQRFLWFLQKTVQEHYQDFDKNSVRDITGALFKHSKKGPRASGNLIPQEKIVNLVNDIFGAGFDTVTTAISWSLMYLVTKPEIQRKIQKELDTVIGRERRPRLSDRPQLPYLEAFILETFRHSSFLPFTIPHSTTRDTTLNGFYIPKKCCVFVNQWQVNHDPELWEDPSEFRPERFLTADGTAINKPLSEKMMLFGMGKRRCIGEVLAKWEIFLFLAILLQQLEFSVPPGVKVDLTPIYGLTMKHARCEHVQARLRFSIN
Assay: Inhibition of CYP1A2 at 10 uM
Type: ADME
Assay readout: inhibition at 10 µM (%)

Smiles representation	Assay readout	Value units	Measured result
CC(=S)NC[C@H]1CN(c2ccc(-c3nnc4ncccn34)cc2)C(=O)O1	inhibition at 10 µM	%	0
